# system: Cellular tumor antigen p53 (Homo sapiens) (UniProt P04637)
# Sequence (P04637 whole entry, looked up): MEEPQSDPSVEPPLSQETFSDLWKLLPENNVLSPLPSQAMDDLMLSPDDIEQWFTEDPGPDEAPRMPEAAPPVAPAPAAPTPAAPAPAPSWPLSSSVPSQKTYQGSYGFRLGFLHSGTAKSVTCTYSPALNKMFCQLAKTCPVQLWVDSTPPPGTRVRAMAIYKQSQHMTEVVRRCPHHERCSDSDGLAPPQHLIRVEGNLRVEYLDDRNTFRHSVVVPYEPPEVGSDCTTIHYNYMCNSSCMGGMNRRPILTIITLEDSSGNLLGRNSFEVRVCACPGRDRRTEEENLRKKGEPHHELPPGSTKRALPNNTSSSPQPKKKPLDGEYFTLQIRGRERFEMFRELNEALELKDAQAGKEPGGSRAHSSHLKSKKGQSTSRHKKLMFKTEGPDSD
# assayMethodText: Primary qHTS for small molecule compounds that upregulate eGFP-tagged delta133p53alpha (in N-terminal) cells. (AID 2060322);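 further: cells pre-induced with doxycycline then dosed without doxycycline; series mostly up to about 56 µM; 0% = DMSO vehicle and 100% = reference activator; nearly all actives have a fitted effect of over 75% in size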
# runParameters: NCI-H358 eGFP-delta133p53alpha fluorescence, 24 h; hits give high values
Inconclusive results are not listed.
Think of 10% as a floor: if activation stands on it or above, it is met; beneath it, not met.

{"columns": ["compound", "category"],
 "data": [
  ["CC1=CC(=O)C2C(C)(C)CC(O)CC2(C)C1CO (stereo unspecified)", "not met"],
  ["COc1cc2c(CCNC(C)=O)c[nH]c2cc1Cl", "not met"],
  ["CCc1c(-c2ccccc2)c(-c2ccccc2)nn1-c1ccccc1-c1cccc(OCC(=O)O)c1", "met"],
  ["C=C(CO)C12OC1C1(C)C(=CC2=O)C(O)C(O)CC1C (stereo unspecified)", "met"],
  ["N=c1nc2n(cc1F)C1OC(CO)C(O)C1O2 (stereo unspecified)", "not met"],
  ["O=C1CCc2ccccc2O1", "not met"]
]}

---

# system: Cellular tumor antigen p53 (Homo sapiens) (UniProt P04637)
# assayMethodText: Primary qHTS for small molecule compounds that upregulate eGFP-tagged delta133p53alpha (in N-terminal) cells. (AID 2060322);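 further: cells pre-induced with doxycycline then dosed without doxycycline; series mostly up to about 56 µM; 0% = DMSO vehicle and 100% = reference activator; nearly all actives have a fitted effect of over 75% in size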
# runParameters: NCI-H358 eGFP-delta133p53alpha fluorescence, 24 h; hits give high values
Results filed as inconclusive are left out. Square brackets hold non-standard residues; d marks the D form. Residues, ends and D or L forms follow the SMILES beside them. Peptide text beside a SMILES is read from it. dPhe(4-Cl) = N[C@H](Cc1ccc(Cl)cc1)C(=O)O; d2Nal = N[C@H](Cc1ccc2ccccc2c1)C(=O)O; dCit = NC(=O)NCCC[C@@H](N)C(=O)O; d3Pal = N[C@H](Cc1cccnc1)C(=O)O
Attribute: activation
reportedProperty: activation (%)

{"columns": ["molecule", "observedResult"],
 "data": [
  ["CO[C@H]1C[C@@H]2CC[C@@H](C)[C@@](O)(O2)C(=O)C(=O)N2CCCC[C@@H]2C(=O)O[C@H]([C@H](C)C[C@@H]2CC[C@H](OP(C)(C)=O)[C@H](OC)C2)CC(=O)[C@H](C)C=C(C)[C@@H](O)[C@@H](OC)C(=O)[C@H](C)C[C@H](C)C=CC=CC=C1C", 24.8],
  ["CC(O)/C=C/C1(O)C(C)C(O)C(O[C@@H]2O[C@H](CO)[C@@H](O)[C@H](O)[C@H]2O)CC1(C)C (stereo partly drawn)", -14.3],
  ["CC1(C)CCCC2(C)C(CO)C3CCC2C31 (stereo not drawn)", 24.1],
  ["Oc1ccccc1", -1.69],
  ["OCC1O[C@H]([S-])[C@H](O)[C@@H](O)[C@@H]1O.[Au+] (stereo partly drawn)", 21.8],
  ["CCCCCCCCCCCCCCCC(=O)OC(C)C", -15.3],
  ["O=c1[nH]nc(Sc2ncc([N+](=O)[O-])s2)n1-c1ccc2c(c1)OCCO2", -12.9],
  ["N[C@@H](CC(=O)O)C(=O)O", -3.52],
  ["O=C(O)Cc1cn([C@@H]2OC[C@@H](O[C@@H]3O[C@H](CO)[C@@H](O)[C@H](O)[C@H]3O)[C@H](O)[C@H]2O[C@@H]2O[C@H](CO)[C@@H](O)[C@H](O)[C@H]2O)c2ccccc12", -7.63],
  ["CC(C)(F)C[C@@H](N[C@@H](c1ccc(-c2ccc(S(C)(=O)=O)cc2)cc1)C(F)(F)F)C(=O)NC1(C#N)CC1", -8.11],
  ["CC12CCC3c4ccc(O)cc4CCC3C1CCC2OC1OC(C(=O)O)C(O)C(O)C1O (stereo not drawn)", -11.7],
  ["Cc1nc2cnc3ccc(C#Cc4cccnc4)cc3c2n1-c1ccc(C(C)(C)C#N)cc1", 35.7],
  ["Cn1cc[nH]c1=S", -1.69],
  ["COCc1c(Cl)ccc2c1CC[C@H]2c1ncc[nH]1", 11],
  ["O=C(NCC(=O)N1CCCC1)Nc1ccc2cnccc2c1", 7.14],
  ["CCCOC(=O)c1ccccc1", -2.82],
  ["COc1c2c(c(C)c3c1C(=O)OC3)O[C@@]1(C)CCC3(C(C)(C)O)OC(=O)CC[C@]3(C)[C@H]1C2 (stereo partly drawn)", 4.58],
  ["Nc1ncnc2n[nH]c(Nc3ccc(F)cc3)c12", 1],
  ["c1ccc(-c2cnn3cc(-c4ccc(OCCN5CCOCC5)cc4)cnc23)cc1", -17],
  ["CC(=O)O[C@H]1[C@H](O)C[C@@]2(C)C(CC[C@]3(C)C2CC=C2C4CC(C)(C)CC[C@]4(C(=O)O)CC[C@]23C)C1(C)C (stereo partly drawn)", -12.5],
  ["CC(=O)N[C@@H](CO)C(=O)N[C@@H](CC(=O)O)C(=O)N[C@@H](CCCCN)C(=O)N1CCC[C@H]1C(=O)O (Ac-SDKP-OH)", -24.3],
  ["COc1cc(/C=C/C(=O)O[C@@H]2C[C@](O)(C(=O)O)C[C@@H](O)[C@H]2O)ccc1O", 3.57],
  ["CN1CCN(c2nc(-c3ccc(C(=O)NC4(C(=O)NCC#N)CCCCC4)cc3)cs2)CC1", -19.1],
  ["Cc1cc(C)c(S(=O)(=O)n2cc(C)cc2C)c(C)c1", 5.73],
  ["CN(CC[C@@H](Oc1ccc(C(F)(F)F)cc1)c1ccccc1)CC(=O)O", 2.22],
  ["CC(=O)N[C@H](Cc1ccc2ccccc2c1)C(=O)N[C@H](Cc1ccc(Cl)cc1)C(=O)N[C@H](Cc1cccnc1)C(=O)N[C@@H](CO)C(=O)N[C@@H](Cc1ccc(O)cc1)C(=O)N[C@H](CCCNC(N)=O)C(=O)N[C@@H](CC(C)C)C(=O)N[C@@H](CCCN=C(N)N)C(=O)N1CCC[C@H]1C(=O)N[C@H](C)C(N)=O (Ac-[d2Nal][dPhe(4-Cl)][d3Pal]SY[dCit]LRP[dA]-NH2)", 13],
  ["CCCn1c(=O)c2[nH]c(-c3ccc(S(=O)(=O)O)cc3)nc2n(CCC)c1=O", -6.22],
  ["C=C(C)C1CCC2(C(=O)OC3OC(COC4OC(CO)C(O)C(O)C4O)C(OC4OC(C)C(O)C(O)C4O)C(O)C3O)CCC3(C(=O)O)C(CCC4C5(C)CCC(=O)C(C)(C)C5CCC43C)C12 (stereo not drawn)", -8.4],
  ["COC(=O)C1(C)CCC2(C(=O)O)CCC3(C)C(=CCC4C5(C)CC(O)C(OC6OCC(O)C(O)C6O)C(C)(CO)C5CCC43C)C2C1 (stereo not drawn)", -6.11],
  ["C/C=C/C=C/C(O)=C1\\C(O)=C(C)C(=O)[C@@]2(C)OC(=O)[C@@](C)(NC(=O)/C=C/C(=O)O)[C@@H]12", 10.7],
  ["O=C(Nc1nc2ccccc2n1CCc1ccccc1)c1ccccc1", 6.68],
  ["Nc1ccccc1NC(=O)c1ccc(CNC(=O)OCc2cccnc2)cc1", 3.28],
  ["Cc1nnc(-c2ccc(-c3ccc(C(=O)Nc4ccc(O)c(N5CCN(C)CC5)c4)cc3)c(C)c2)o1", -0.477]
]}
